Test system: Colo205 (Colon)
Assay: cell survival / MTT combination cytotoxicity
Format: cell-based, human
Conditions: Homo sapiens, COLO 205
PARAMETER_MEASURED: pIC50
Units for pIC50: none; it is -log10 of a concentration expressed in mol/L.

Qu. So what does the record say about pIC50 for Cn1cc(-c2[nH]c3cc(NC(=O)[C@H](N)C4CCCCC4)cc4c3c2C=NNC4=O)cn1 [Compound 1] ?
Ans. 5.89

###

Molecular target: Axl (Homo sapiens)
PARAMETER_MEASURED: IC50 (nM)
The response must be a number in nM with no trailing unit.

Qu. Value wanted: IC50 (Axl (Homo sapiens)) of entry Cn1cc(-c2[nH]c3cc(NC(=O)[C@H](N)C4CCCCC4)cc4c3c2C=NNC4=O)cn1 [Compound 1]
Ans. 117

###

Target: Rsk2 (Homo sapiens, UniProt P51812)
Sequence (P51812 whole entry): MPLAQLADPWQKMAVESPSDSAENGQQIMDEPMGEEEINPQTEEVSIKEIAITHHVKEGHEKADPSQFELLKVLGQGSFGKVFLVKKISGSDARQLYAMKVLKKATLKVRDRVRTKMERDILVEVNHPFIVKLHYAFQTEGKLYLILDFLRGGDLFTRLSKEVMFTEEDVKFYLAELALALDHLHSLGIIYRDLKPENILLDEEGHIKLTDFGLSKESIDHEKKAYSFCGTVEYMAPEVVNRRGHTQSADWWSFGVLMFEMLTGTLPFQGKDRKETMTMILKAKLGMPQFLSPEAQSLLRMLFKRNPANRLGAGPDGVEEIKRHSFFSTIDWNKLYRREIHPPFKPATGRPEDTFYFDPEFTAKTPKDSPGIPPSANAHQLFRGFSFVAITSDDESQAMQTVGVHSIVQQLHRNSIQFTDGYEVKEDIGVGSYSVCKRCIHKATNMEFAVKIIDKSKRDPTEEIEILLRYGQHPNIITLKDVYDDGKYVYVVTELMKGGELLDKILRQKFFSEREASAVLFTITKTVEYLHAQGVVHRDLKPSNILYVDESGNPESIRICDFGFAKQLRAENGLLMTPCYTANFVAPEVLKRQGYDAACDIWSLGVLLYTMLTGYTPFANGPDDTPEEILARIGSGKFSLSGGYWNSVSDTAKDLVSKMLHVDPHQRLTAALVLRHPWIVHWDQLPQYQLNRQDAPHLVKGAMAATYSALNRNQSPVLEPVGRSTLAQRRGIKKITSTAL
PARAMETER_MEASURED: IC50 (nM)
The response must be a number in nM with no trailing unit.

Qu. Value wanted: IC50 (Rsk2 (Homo sapiens, UniProt P51812)) of entry Cn1cc(-c2[nH]c3cc(NC(=O)[C@H](N)C4CCCCC4)cc4c3c2C=NNC4=O)cn1 [Compound 1]
Ans. 621

###

Target: Fms (Homo sapiens)
PARAMETER_MEASURED: IC50 (nM)
The response must be a number in nM with no trailing unit.

Qu. Value wanted: IC50 (Fms (Homo sapiens)) of entry Cn1cc(-c2[nH]c3cc(NC(=O)[C@H](N)C4CCCCC4)cc4c3c2C=NNC4=O)cn1 [Compound 1]
Ans. 10

###

Molecular target: cSRC (Homo sapiens, UniProt P12931)
Sequence (P12931 whole entry): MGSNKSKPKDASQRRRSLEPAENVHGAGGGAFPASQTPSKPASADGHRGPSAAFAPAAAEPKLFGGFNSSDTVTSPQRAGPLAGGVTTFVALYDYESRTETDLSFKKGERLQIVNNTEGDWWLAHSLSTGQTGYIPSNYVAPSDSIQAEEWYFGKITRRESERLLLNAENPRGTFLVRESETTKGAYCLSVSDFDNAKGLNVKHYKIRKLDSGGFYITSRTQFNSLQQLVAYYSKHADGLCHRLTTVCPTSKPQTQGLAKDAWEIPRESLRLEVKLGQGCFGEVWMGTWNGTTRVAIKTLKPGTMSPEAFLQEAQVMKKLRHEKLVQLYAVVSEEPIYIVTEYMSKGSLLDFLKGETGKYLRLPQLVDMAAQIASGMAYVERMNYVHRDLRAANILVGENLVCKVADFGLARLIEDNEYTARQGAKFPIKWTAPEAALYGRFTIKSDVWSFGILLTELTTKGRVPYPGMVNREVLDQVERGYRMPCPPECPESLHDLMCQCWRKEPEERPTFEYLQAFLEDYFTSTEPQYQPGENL
PARAMETER_MEASURED: pIC50
Units for pIC50: none; it is -log10 of a concentration expressed in mol/L.

Qu. So what does the record say about pIC50 for Cn1cc(-c2[nH]c3cc(NC(=O)[C@H](N)C4CCCCC4)cc4c3c2C=NNC4=O)cn1 [Compound 1] ?
Ans. 6.35

###

Target: Rsk3 (Homo sapiens)
Sequence (Q15349 whole entry): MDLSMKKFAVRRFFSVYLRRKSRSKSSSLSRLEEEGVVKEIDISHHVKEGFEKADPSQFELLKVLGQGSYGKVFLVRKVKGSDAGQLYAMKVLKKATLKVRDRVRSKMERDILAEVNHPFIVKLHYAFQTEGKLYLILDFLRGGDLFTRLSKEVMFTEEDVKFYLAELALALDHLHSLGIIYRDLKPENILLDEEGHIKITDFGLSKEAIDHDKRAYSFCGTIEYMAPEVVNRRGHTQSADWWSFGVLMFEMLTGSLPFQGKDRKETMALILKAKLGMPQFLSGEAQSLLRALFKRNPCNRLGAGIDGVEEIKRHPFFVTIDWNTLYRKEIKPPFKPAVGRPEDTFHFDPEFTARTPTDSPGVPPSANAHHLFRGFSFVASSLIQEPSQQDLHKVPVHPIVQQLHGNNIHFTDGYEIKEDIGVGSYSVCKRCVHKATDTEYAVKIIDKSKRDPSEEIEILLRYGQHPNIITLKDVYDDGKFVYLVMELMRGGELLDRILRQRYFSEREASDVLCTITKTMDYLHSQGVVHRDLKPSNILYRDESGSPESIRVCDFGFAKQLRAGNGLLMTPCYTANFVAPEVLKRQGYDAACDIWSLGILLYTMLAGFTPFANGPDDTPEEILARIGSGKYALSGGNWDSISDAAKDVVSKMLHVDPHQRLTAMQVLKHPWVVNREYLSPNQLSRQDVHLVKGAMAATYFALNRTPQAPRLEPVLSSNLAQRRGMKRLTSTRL
PARAMETER_MEASURED: IC50

Qu. Value wanted: IC50 (Rsk3 (Homo sapiens)) of entry "Cn1cc(-c2[nH]c3cc(NC(=O)[C@H](N)C4CCCCC4)cc4c3c2C=NNC4=O)cn1"
Ans. 171 nM

###

Biological target: Lyn (Homo sapiens)
PARAMETER_MEASURED: pIC50
Units for pIC50: none; it is -log10 of a concentration expressed in mol/L.

Qu. Value wanted: pIC50 (Lyn (Homo sapiens)) of entry "Cn1cc(-c2[nH]c3cc(NC(=O)[C@H](N)C4CCCCC4)cc4c3c2C=NNC4=O)cn1"
Ans. 6.58

###

Assay: maximum tolerated dose by mean body weight loss
Settings: in vivo
PARAMETER_MEASURED: MTD (mg/kg)
The response must be a number in mg/kg with no trailing unit.

Qu. So what does the record say about MTD for Cn1cc(-c2[nH]c3cc(NC(=O)[C@H](N)C4CCCCC4)cc4c3c2C=NNC4=O)cn1 [Compound 1] ?
Ans. 40

###

Molecular target: P70S6K (Homo sapiens, UniProt P23443)
PARAMETER_MEASURED: pIC50
Units for pIC50: none; it is -log10 of a concentration expressed in mol/L.

Qu. Value wanted: pIC50 (P70S6K (Homo sapiens, UniProt P23443)) of entry Cn1cc(-c2[nH]c3cc(NC(=O)[C@H](N)C4CCCCC4)cc4c3c2C=NNC4=O)cn1 [Compound 1]
Ans. 7.21

###

Target: PRK2 (Homo sapiens)
PARAMETER_MEASURED: pIC50
Units for pIC50: none; it is -log10 of a concentration expressed in mol/L.

Qu. Value wanted: pIC50 (PRK2 (Homo sapiens)) of entry "Cn1cc(-c2[nH]c3cc(NC(=O)[C@H](N)C4CCCCC4)cc4c3c2C=NNC4=O)cn1"
Ans. 5.70

###

Target: PDGFRa (Homo sapiens, UniProt P16234)
Sequence (P16234 24-1089): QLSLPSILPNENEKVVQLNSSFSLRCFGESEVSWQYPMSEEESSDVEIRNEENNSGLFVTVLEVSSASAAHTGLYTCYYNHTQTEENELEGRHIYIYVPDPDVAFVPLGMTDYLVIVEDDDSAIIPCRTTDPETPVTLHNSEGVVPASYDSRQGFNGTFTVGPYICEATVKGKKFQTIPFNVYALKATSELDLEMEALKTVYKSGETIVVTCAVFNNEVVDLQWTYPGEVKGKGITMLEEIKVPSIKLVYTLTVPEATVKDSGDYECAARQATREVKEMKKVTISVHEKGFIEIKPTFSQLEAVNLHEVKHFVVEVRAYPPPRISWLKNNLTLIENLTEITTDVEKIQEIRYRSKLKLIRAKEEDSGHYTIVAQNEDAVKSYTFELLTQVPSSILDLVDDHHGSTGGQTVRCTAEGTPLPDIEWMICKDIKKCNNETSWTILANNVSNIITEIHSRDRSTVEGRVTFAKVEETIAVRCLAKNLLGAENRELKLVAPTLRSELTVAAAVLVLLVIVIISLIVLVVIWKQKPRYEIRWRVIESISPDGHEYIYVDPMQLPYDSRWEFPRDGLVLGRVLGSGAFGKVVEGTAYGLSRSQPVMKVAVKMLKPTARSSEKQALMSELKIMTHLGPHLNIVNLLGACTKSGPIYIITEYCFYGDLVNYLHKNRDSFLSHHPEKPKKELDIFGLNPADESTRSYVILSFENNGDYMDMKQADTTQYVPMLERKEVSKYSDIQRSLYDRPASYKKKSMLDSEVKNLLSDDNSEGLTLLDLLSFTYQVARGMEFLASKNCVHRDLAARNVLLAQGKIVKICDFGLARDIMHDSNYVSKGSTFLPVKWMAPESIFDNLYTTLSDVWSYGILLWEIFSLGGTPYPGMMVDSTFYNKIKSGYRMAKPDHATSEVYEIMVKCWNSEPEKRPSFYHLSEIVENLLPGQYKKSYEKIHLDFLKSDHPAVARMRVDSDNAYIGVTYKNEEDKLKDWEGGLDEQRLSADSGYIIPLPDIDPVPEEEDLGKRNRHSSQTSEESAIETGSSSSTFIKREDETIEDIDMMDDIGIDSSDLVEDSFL
PARAMETER_MEASURED: IC50 (nM)
The response must be a number in nM with no trailing unit.

Qu. So what does the record say about IC50 for Cn1cc(-c2[nH]c3cc(NC(=O)[C@H](N)C4CCCCC4)cc4c3c2C=NNC4=O)cn1 [Compound 1] ?
Ans. 2810

###

System: MDA-MB-231 (Breast)
Assay: cell survival / MTT combination cytotoxicity
Assay type: cell-based, human
Conditions: IC50 cytotoxic agent alone / IC50 combination, Compound 1 at 8x EC50 (360 nM)
Below, each entry is listed with its recorded PF50 (Potentiation Factor50).
Write the value as a bare number.

Consider the reported PF50 (Potentiation Factor50) for these compounds:
[
  {
    "SUBSTANCE_SMILES": "CCc1c2c(nc3ccc(O)cc13)-c1cc3c(c(=O)n1C2)COC(=O)[C@]3(O)CC",
    "PARAMETER_MEASURED": "PF50 (Potentiation Factor50)",
    "RECORDED_NUMBER": 2.4
  },
  {
    "SUBSTANCE_SMILES": "Nc1ccn([C@@H]2O[C@H](CO)[C@@H](O)C2(F)F)c(=O)n1",
    "PARAMETER_MEASURED": "PF50 (Potentiation Factor50)",
    "RECORDED_NUMBER": 3.6
  },
  {
    "SUBSTANCE_SMILES": "COc1cccc2c1C(=O)c1c(O)c3c(c(O)c1C2=O)C[C@@](O)(C(=O)CO)C[C@@H]3O[C@H]1C[C@H](N)[C@H](O)[C@H](C)O1",
    "PARAMETER_MEASURED": "PF50 (Potentiation Factor50)",
    "RECORDED_NUMBER": 2.25
  },
  {
    "SUBSTANCE_SMILES": "N.N.O=C([O-])C1(C(=O)[O-])CCC1.[Pt+2]",
    "PARAMETER_MEASURED": "PF50 (Potentiation Factor50)",
    "RECORDED_NUMBER": 2.55
  }
]

// below: PF50 (Potentiation Factor50) requested for another compound
Qu. So what does the record say about PF50 (Potentiation Factor50) for "CO[C@@]12[C@H](COC(N)=O)C3=C(C(=O)C(C)=C(N)C3=O)N1C[C@@H]1N[C@@H]12" ?
Ans. 1.2

###

Molecular target: PAR-1Ba (Homo sapiens, UniProt Q7KZI7)
PARAMETER_MEASURED: pIC50
Units for pIC50: none; it is -log10 of a concentration expressed in mol/L.

Qu. Value wanted: pIC50 (PAR-1Ba (Homo sapiens, UniProt Q7KZI7)) of entry "Cn1cc(-c2[nH]c3cc(NC(=O)[C@H](N)C4CCCCC4)cc4c3c2C=NNC4=O)cn1"
Ans. 6.46

###

Biological target: Rsk1 (Homo sapiens)
PARAMETER_MEASURED: pIC50
Units for pIC50: none; it is -log10 of a concentration expressed in mol/L.

Qu. So what does the record say about pIC50 for "Cn1cc(-c2[nH]c3cc(NC(=O)[C@H](N)C4CCCCC4)cc4c3c2C=NNC4=O)cn1" ?
Ans. 7.01

###

Target: Fgr (Homo sapiens, UniProt P09769)
Sequence (P09769 whole entry): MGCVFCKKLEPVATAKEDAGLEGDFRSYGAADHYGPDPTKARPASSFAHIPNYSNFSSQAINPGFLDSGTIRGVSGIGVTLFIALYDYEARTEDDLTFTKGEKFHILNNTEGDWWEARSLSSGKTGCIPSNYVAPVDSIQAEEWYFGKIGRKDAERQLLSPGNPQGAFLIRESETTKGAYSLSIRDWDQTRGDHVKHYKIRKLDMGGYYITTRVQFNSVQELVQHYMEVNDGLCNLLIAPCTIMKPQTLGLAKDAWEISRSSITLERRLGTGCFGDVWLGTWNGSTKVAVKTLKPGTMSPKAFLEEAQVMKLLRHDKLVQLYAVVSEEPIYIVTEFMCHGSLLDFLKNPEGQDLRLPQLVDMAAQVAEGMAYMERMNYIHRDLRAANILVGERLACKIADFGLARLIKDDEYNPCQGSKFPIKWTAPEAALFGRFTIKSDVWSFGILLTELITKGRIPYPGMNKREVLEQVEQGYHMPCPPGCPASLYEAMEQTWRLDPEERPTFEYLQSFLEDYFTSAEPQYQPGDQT
PARAMETER_MEASURED: IC50 (nM)
The response must be a number in nM with no trailing unit.

Qu. Value wanted: IC50 (Fgr (Homo sapiens, UniProt P09769)) of entry "Cn1cc(-c2[nH]c3cc(NC(=O)[C@H](N)C4CCCCC4)cc4c3c2C=NNC4=O)cn1"
Ans. 153

###

Biological target: Yes (Homo sapiens)
Sequence (P07947 whole entry): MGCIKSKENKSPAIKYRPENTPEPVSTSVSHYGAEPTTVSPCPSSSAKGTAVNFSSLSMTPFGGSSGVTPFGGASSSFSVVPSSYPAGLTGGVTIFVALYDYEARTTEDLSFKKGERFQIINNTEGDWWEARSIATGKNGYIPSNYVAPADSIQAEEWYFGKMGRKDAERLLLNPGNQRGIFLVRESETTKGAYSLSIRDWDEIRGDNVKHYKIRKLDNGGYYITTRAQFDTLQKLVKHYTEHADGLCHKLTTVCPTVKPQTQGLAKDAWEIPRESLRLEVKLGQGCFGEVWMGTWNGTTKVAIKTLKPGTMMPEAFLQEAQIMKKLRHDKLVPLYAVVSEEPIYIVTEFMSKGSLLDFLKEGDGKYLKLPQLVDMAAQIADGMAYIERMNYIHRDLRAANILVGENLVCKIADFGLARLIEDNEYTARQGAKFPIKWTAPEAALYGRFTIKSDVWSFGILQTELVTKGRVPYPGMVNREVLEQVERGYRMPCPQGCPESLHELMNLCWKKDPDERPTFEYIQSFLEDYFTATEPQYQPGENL
PARAMETER_MEASURED: IC50
Answer format: value, then unit.

Qu. So what does the record say about IC50 for "Cn1cc(-c2[nH]c3cc(NC(=O)[C@H](N)C4CCCCC4)cc4c3c2C=NNC4=O)cn1" ?
Ans. 14 nM

###

Biological target: PDK1 (Homo sapiens, UniProt O15530)
Sequence (O15530 whole entry): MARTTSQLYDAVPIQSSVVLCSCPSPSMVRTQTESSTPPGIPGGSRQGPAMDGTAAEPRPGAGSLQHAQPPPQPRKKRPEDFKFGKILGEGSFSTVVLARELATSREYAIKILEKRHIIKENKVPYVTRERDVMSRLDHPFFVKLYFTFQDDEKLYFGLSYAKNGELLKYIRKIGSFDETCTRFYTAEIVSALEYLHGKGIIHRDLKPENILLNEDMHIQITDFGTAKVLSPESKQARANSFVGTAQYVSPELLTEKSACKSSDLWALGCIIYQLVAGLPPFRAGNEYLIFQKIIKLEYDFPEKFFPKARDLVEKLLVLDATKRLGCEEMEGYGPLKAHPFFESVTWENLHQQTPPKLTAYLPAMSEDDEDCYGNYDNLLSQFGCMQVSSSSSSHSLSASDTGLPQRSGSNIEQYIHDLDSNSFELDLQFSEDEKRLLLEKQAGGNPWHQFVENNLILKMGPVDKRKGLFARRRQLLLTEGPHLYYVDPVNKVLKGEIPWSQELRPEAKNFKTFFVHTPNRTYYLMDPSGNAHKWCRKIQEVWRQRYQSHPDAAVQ
PARAMETER_MEASURED: IC50

Qu. So what does the record say about IC50 for "Cn1cc(-c2[nH]c3cc(NC(=O)[C@H](N)C4CCCCC4)cc4c3c2C=NNC4=O)cn1" ?
Ans. 439 nM

###

Tested on: HT29 (Colon)
Test: cell survival / MTT combination cytotoxicity
Type: cell-based, human
Settings: Homo sapiens, HT-29
PARAMETER_MEASURED: pIC50
Units for pIC50: none; it is -log10 of a concentration expressed in mol/L.

Qu. So what does the record say about pIC50 for Cn1cc(-c2[nH]c3cc(NC(=O)[C@H](N)C4CCCCC4)cc4c3c2C=NNC4=O)cn1 [Compound 1] ?
Ans. 5.74

###

Test system: Colo205 (Colon)
Assay: cell survival / MTT combination cytotoxicity
Type: cell-based, human
Conditions: Colo205; IC50 cytotoxic agent alone / IC50 combination; Compound 1 at 8x EC50 (360 nM)
Below, each entry is listed with its recorded PF50 (Potentiation Factor50).
Write the value as a bare number.

Qu. So what does the record say about PF50 (Potentiation Factor50) for "COc1cccc2c1C(=O)c1c(O)c3c(c(O)c1C2=O)C[C@@](O)(C(=O)CO)C[C@@H]3O[C@H]1C[C@H](N)[C@H](O)[C@H](C)O1" ?
Ans. 1.1

Qu. So what does the record say about PF50 (Potentiation Factor50) for "N.N.O=C([O-])C1(C(=O)[O-])CCC1.[Pt+2]" ?
Ans. 5.4

Qu. So what does the record say about PF50 (Potentiation Factor50) for "Nc1ccn([C@@H]2O[C@H](CO)[C@@H](O)C2(F)F)c(=O)n1" ?
Ans. 11.3

Qu. So what does the record say about PF50 (Potentiation Factor50) for "CO[C@@]12[C@H](COC(N)=O)C3=C(C(=O)C(C)=C(N)C3=O)N1C[C@@H]1N[C@@H]12" ?
Ans. 5.3

Qu. So what does the record say about PF50 (Potentiation Factor50) for "CCc1c2c(nc3ccc(O)cc13)-c1cc3c(c(=O)n1C2)COC(=O)[C@]3(O)CC" ?
Ans. 2.1
